Target entity: 125I-BH-eledoisin binding sites in rat brain cortex membranes (Rattus norvegicus, UniProt P16177)
Construct: from tissue; host or cells: rat brain cortex membranes
Sequence (P16177 whole entry): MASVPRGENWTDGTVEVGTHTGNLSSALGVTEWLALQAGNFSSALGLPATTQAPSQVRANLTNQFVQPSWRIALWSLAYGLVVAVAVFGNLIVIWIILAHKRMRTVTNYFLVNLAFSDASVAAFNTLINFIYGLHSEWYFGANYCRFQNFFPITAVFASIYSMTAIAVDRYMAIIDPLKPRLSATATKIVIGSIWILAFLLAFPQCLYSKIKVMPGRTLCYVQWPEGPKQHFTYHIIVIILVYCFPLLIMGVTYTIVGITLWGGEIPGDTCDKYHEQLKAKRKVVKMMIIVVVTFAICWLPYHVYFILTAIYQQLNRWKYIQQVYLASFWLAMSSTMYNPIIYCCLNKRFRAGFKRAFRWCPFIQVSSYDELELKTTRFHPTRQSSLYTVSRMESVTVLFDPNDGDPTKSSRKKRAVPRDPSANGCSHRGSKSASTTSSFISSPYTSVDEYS
Method: eledoisin binding assay (competition for 125I-BH-eledoisin binding sites)
Stated conditions: peptides dissolved in DMSO
Method: Representative compounds of this invention were tested in the substance P (SP) and eledoisin binding assays. The peptides were dissolved in DMSO and tested for their abilities to compete for ^125 I-BH-SP and ^125 I-BH-eledoison binding sites in rat brain cortex membranes (Cascieri and Liang, J. Biol. Chem., 258, 5158 (1983); Life Sciences, 35, 179 (1984)). […]
Assign IC50 to each entry below.
Dear colleague, please return just the value in µM, with no unit written.

Field IC50 (entry CSCC[C@H](NC(=O)[C@H](CC(C)C)N1CC[C@H](NC(=O)[C@H](Cc2ccccc2)NC(=O)[C@H](Cc2ccccc2)NC(=O)[C@@H]2CCC(=O)N2)C1=O)C(N)=O ) reads 32

Field IC50 (entry CSCC[C@H](NC(=O)[C@H](CC(C)C)N1CC[C@@H](NC(=O)[C@H](Cc2ccccc2)NC(=O)[C@H](Cc2ccccc2)NC(=O)[C@@H]2CCC(=O)N2)C1=O)C(N)=O ) reads 0.014
